# TARGET_OR_SYSTEM: Factor D (Homo sapiens (Human))
# Sequence (P00746 26-253): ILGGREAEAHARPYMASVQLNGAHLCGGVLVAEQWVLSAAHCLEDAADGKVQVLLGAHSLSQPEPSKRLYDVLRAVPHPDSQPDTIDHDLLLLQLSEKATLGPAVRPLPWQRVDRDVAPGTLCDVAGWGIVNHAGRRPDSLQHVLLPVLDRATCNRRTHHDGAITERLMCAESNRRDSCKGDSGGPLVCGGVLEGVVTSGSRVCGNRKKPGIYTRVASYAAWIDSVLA
# PROCEDURE_DETAILS: biochemical
# Assay type: biochemical
# CONDITION_DETAILS: read-out: IC50
PARAMETER_MEASURED: IC50 (nM)
// return numeric value only (unit: nM, not printed)

> print(dat)
                                   molecule  parameter.measured  readout.value
1  C[C@@H](NC(=O)[C@@H]1C[C@@H](F)CN1C(=O)Cn1nc(C(N)=O)c2ccncc21)c1cccc(Cl)c1F [Example 690]                IC50             34
2  NC(=O)c1nn(CC(=O)N2[C@H](C(=O)Nc3cccc(OC(F)(F)F)c3F)C[C@@]3(CO)C[C@@H]23)c2ccccc12 [Example 758]                IC50             64
3  NC(=O)c1cc(NC(=O)N2CCC[C@H]2C(=O)Nc2cccc(OC(F)(F)F)c2)c2ccccn12 [Example 121]                IC50           1250
4  NC(=O)n1cc(NC(=O)N2C[C@H](F)C[C@H]2C(=O)NCc2cncc(C(F)(F)F)c2)c2ccccc21 [Example 305]                IC50           1350
5  COc1ccc(Cl)cc1CNC(=O)[C@@H]1C[C@H](N)CN1C(=O)Nc1cn(C(N)=O)c2ccccc12 [Example 53]                IC50           1750
6  CCOC(=O)Cc1ccc2c(c1)c(NC(=O)N1[C@@H]3C[C@@H]3C[C@H]1C(=O)NCc1cccc(Cl)c1F)cn2C(N)=O [Example 306]                IC50              4
7  C[C@@H](NC(=O)[C@@H]1C[C@H](N)CN1C(=O)Nc1cn(C(N)=O)c2ccccc12)c1cccc(Cl)c1 [Example 69]                IC50           1050
8  N#Cc1ccc(-c2cccc(NC(=O)[C@@H]3CCCN3C(=O)Nc3cn(C(N)=O)c4ccccc34)c2)cc1 [Example 152]                IC50           4400

Sample Cn1nc(-c2ccccc2)cc1NC(=O)[C@@H]1CCCN1C(=O)Nc1cn(C(N)=O)c2ccccc12 [Example 199] ; IC50 observed: 8650

Sample NC(=O)n1cc(NC(=O)N2C[C@H](F)C[C@H]2C(=O)N[C@H](c2cccc(Cl)c2)C(F)(F)F)c2ccccc21 [Example 319] ; IC50 observed: 548

Sample Cc1cc2c(cn1)c(C(N)=O)nn2CC(=O)N1[C@@H]2C[C@@H]2C[C@H]1C(=O)Nc1cccc(OC(F)(F)F)c1F [Example 713] ; IC50 observed: 260

Sample COC[C@@]12C[C@@H]1N(C(=O)Nc1cn(C(N)=O)c3ccccc13)[C@H](C(=O)NCc1cccc(Cl)c1F)C2 [Example 214] ; IC50 observed: 1570

Sample NC(=O)n1cc(CC(=O)N2C[C@H](F)C[C@H]2C(=O)NCc2cccc(Cl)c2F)c2ccccc21 [Example 448] ; IC50 observed: 26

Sample CC(=O)c1cn(CC(=O)N2C[C@H](F)C[C@H]2C(=O)NCc2cc(C(=O)O)cc(Cl)c2F)c2ccccc12 [Example 605] ; IC50 observed: 54

Sample COC(=O)COc1ccc2c(c1)c(NC(=O)N1[C@@H]3C[C@@H]3C[C@H]1C(=O)NCc1cccc(Cl)c1F)cn2C(N)=O [Example 133] ; IC50 observed: 6

Sample NC(=O)n1cc(NC(=O)N2C[C@@H](N)C[C@H]2C(=O)NCc2ccc(Cl)s2)c2ccccc21 [Example 66] ; IC50 observed: 65
